Experiment: Hygroscopicity test (Karl-Fischer water content under accelerated storage)
Type: physicochemical
Settings: 1 day at 40° C. / 75% relative humidity, Petri dish without sealing
The reader will find reported Water content (%) 1 day values listed item by item below.
Field: value (include unit after the number)

>>> result("CCCc1c(-c2ccccc2)nn(-c2ccccn2)c1O [Hemi-1,5-naphthalene disulfonate]")
"0.12%"
>>> result("CCCc1c(-c2ccccc2)nn(-c2ccccn2)c1O [Example 1]")
"0.29%"

Would you mind telling me what Water content (%) 1 day value was observed for CCCc1c(-c2ccccc2)nn(-c2ccccn2)c1O [L-malate] ? 1.58%

Would you mind telling me what Water content (%) 1 day value was observed for CCCc1c(-c2ccccc2)nn(-c2ccccn2)c1O [Succinate] ? 0.42%

Would you mind telling me what Water content (%) 1 day value was observed for CCCc1c(-c2ccccc2)nn(-c2ccccn2)c1O [L-tartrate] ? 0.34%

Would you mind telling me what Water content (%) 1 day value was observed for CCCc1c(-c2ccccc2)nn(-c2ccccn2)c1O [Comparative Example 1] ? 1.30%

====

Test: Hygroscopicity test (Karl-Fischer water content under accelerated storage)
Assay type: physicochemical
Conditions: 3 days at 40° C. / 75% relative humidity, Petri dish without sealing
// boundary case: Water content (%) 3 days equal to 0.4% maps to label 0; strictly smaller maps to label 1

Illustrative cases are given below, each with its answer.
>>> category_label("CCCc1c(-c2ccccc2)nn(-c2ccccn2)c1O [L-malate]")
"label 0"
>>> category_label("CCCc1c(-c2ccccc2)nn(-c2ccccn2)c1O [Example 1]")
"label 1"
>>> category_label("CCCc1c(-c2ccccc2)nn(-c2ccccn2)c1O [Comparative Example 1]")
"label 0"
>>> category_label("CCCc1c(-c2ccccc2)nn(-c2ccccn2)c1O [L-tartrate]")
"label 1"
>>> category_label("CCCc1c(-c2ccccc2)nn(-c2ccccn2)c1O [Succinate]")
"label 0"

For the next question, use this compound.
Answer whether the compound CCCc1c(-c2ccccc2)nn(-c2ccccn2)c1O [Hemi-1,5-naphthalene disulfonate] has Water content (%) 3 days strictly less than 0.4% label 1

====

Assay: Stability comparison test (long-term storage, HPLC of decomposition product of Formula 3 and total impurities)
Assay type: physicochemical
Conditions: 6 months at 25° C. / 60% relative humidity
readout-name: Concentration of decomposition product of Formula 3 (%) 6 months
Field: value (include unit after the number)

These solved cases illustrate the format of a correct answer.
>>> result("CCCc1c(-c2ccccc2)nn(-c2ccccn2)c1O [L-malate]")
"0.78%"
>>> result("CCCc1c(-c2ccccc2)nn(-c2ccccn2)c1O [Comparative Example 1]")
"0.65%"
>>> result("CCCc1c(-c2ccccc2)nn(-c2ccccn2)c1O [Succinate]")
"0.38%"
>>> result("CCCc1c(-c2ccccc2)nn(-c2ccccn2)c1O [Hemi-1,5-naphthalene disulfonate]")
"0.35%"

Would you mind telling me what Concentration of decomposition product of Formula 3 (%) 6 months value was observed for CCCc1c(-c2ccccc2)nn(-c2ccccn2)c1O [L-tartrate] ? 0.54%

Would you mind telling me what Concentration of decomposition product of Formula 3 (%) 6 months value was observed for CCCc1c(-c2ccccc2)nn(-c2ccccn2)c1O [Example 1] ? 0.09%

====

The reader will find reported Total impurity concentration (%) Initial values listed item by item below.
Test: Stability comparison test (long-term storage, HPLC of decomposition product of Formula 3 and total impurities)
Type: physicochemical
Settings: initial
Kindly answer with a numeric value in %, unit omitted.

These solved cases illustrate the format of a correct answer.
>>> result_number("CCCc1c(-c2ccccc2)nn(-c2ccccn2)c1O [Hemi-1,5-naphthalene disulfonate]")
0.52
>>> result_number("CCCc1c(-c2ccccc2)nn(-c2ccccn2)c1O [Example 1]")
0.32
>>> result_number("CCCc1c(-c2ccccc2)nn(-c2ccccn2)c1O [L-malate]")
0.58
>>> result_number("CCCc1c(-c2ccccc2)nn(-c2ccccn2)c1O [L-tartrate]")
0.40
>>> result_number("CCCc1c(-c2ccccc2)nn(-c2ccccn2)c1O [Succinate]")
0.48

Alright, here's another compound for you.
Would you mind telling me what Total impurity concentration (%) Initial value was observed for CCCc1c(-c2ccccc2)nn(-c2ccccn2)c1O [Comparative Example 1] ? 0.26

====

Assay: Hygroscopicity test (Karl-Fischer water content under accelerated storage)
Format: physicochemical
Details: 7 days at 40° C. / 75% relative humidity, Petri dish without sealing
YES means recorded Water content (%) 7 days is 0.3% or above; NO means it is below 0.3%.

Illustrative cases are given below, each with its answer.
>>> category_label("CCCc1c(-c2ccccc2)nn(-c2ccccn2)c1O [Succinate]")
"YES"
>>> category_label("CCCc1c(-c2ccccc2)nn(-c2ccccn2)c1O [Example 1]")
"YES"
>>> category_label("CCCc1c(-c2ccccc2)nn(-c2ccccn2)c1O [L-malate]")
"YES"
>>> category_label("CCCc1c(-c2ccccc2)nn(-c2ccccn2)c1O [Hemi-1,5-naphthalene disulfonate]")
"NO"

Is Water content (%) 7 days at least 0.3%? Consider CCCc1c(-c2ccccc2)nn(-c2ccccn2)c1O [L-tartrate] YES

Is Water content (%) 7 days at least 0.3%? Consider CCCc1c(-c2ccccc2)nn(-c2ccccn2)c1O [Comparative Example 1] YES

====

The reader will find reported Water content (%) Initial values listed item by item below.
Assay: Hygroscopicity test (Karl-Fischer water content under accelerated storage)
Format: physicochemical
Settings: initial, before storage at 40° C. / 75% relative humidity
Kindly answer with a numeric value in %, unit omitted.

These solved cases illustrate the format of a correct answer.
>>> result_number("CCCc1c(-c2ccccc2)nn(-c2ccccn2)c1O [Comparative Example 1]")
0.33
>>> result_number("CCCc1c(-c2ccccc2)nn(-c2ccccn2)c1O [L-tartrate]")
0.33
>>> result_number("CCCc1c(-c2ccccc2)nn(-c2ccccn2)c1O [Hemi-1,5-naphthalene disulfonate]")
0.12
>>> result_number("CCCc1c(-c2ccccc2)nn(-c2ccccn2)c1O [L-malate]")
0.45
>>> result_number("CCCc1c(-c2ccccc2)nn(-c2ccccn2)c1O [Succinate]")
0.37

Alright, here's another molecule for you.
Would you mind telling me what Water content (%) Initial value was observed for CCCc1c(-c2ccccc2)nn(-c2ccccn2)c1O [Example 1] ? 0.26

====

Assay: Stability comparison test (long-term storage, HPLC of decomposition product of Formula 3 and total impurities)
Type: physicochemical
Settings: initial
readout-name: Concentration of decomposition product of Formula 3 (%) Initial
Kindly answer with a numeric value in %, unit omitted.

These solved cases illustrate the format of a correct answer.
>>> result_number("CCCc1c(-c2ccccc2)nn(-c2ccccn2)c1O [Comparative Example 1]")
0.06
>>> result_number("CCCc1c(-c2ccccc2)nn(-c2ccccn2)c1O [L-malate]")
0.12
>>> result_number("CCCc1c(-c2ccccc2)nn(-c2ccccn2)c1O [L-tartrate]")
0.10

Would you mind telling me what Concentration of decomposition product of Formula 3 (%) Initial value was observed for CCCc1c(-c2ccccc2)nn(-c2ccccn2)c1O [Example 1] ? 0.05

Would you mind telling me what Concentration of decomposition product of Formula 3 (%) Initial value was observed for CCCc1c(-c2ccccc2)nn(-c2ccccn2)c1O [Succinate] ? 0.09

Would you mind telling me what Concentration of decomposition product of Formula 3 (%) Initial value was observed for CCCc1c(-c2ccccc2)nn(-c2ccccn2)c1O [Hemi-1,5-naphthalene disulfonate] ? 0.08
